Test system: human liver microsomes, metabolic stability half-life
Test: NCATS Human Liver Microsomal (HLM) Stability Profiling
Conditions: higher = more stable; screened at 1 µM (by protocol)
Documented half-life across a set of compounds
Only the number, expressed in h, is required.

Prompt line: # half-life lookup, item C1N2CN3CN1CN(C2)C3
Response line: 0.508

Prompt line: // returns reported half-life for input COc1ccc(Sc2ccc(NC(=O)c3ccccc3Cl)cc2C#N)cc1
Response line: 0.524

Prompt line: Recorded half-life of Cc1cc(O)c(-c2ccc([C@@H](C)CN(C)C)cc2)c2c1[nH]c(=O)c1sccc12 , please.
Response line: 1.59

Prompt line: What measured half-life goes with CN1CCN(C(=O)c2ccc(Nc3nccc(-c4cccs4)n3)cc2Cl)CC1 ?
Response line: 0.319

Prompt line: Report half-life for OCCN1CCN(CC/C=C2/c3ccccc3Sc3ccc(C(F)(F)F)cc32)CC1 please.
Response line: 0.807

---

Tested on: human liver microsomes, metabolic stability half-life
Assay: NCATS Human Liver Microsomal (HLM) Stability Profiling
Details: higher = more stable; screened at 1 µM (by protocol)
Quick rule for you: half-life at 40 min or higher means criterion met, lower means criterion not met.

1) Cc1cccc(C(=O)O)c1O    criterion met
2) CCOC(=O)C1(CCOc2ccccc2)CCN(Cc2ccc(O)c(Cl)c2)CC1    criterion not met
3) CNc1ccc2oc(C[C@H]3O[C@@]4(CC[C@H]3C)O[C@H](C(C)C(=O)c3ccc[nH]3)[C@H](C)C[C@H]4C)nc2c1C(=O)O (stereo not given in full)    criterion met
4) Nc1ccc(C(=O)Nc2cccc(-c3nc(N4CCOCC4)c4oc5ncccc5c4n3)c2)cn1    criterion met
5) CC(C)(O)c1ccccc1CC[C@H](SCC1(CC(=O)O)CC1)c1cccc(/C=C/c2ccc3ccc(Cl)cc3n2)c1    criterion not met

Prompt line: hey, is half-life for this one >= 40 min? CCCN(CCN1CCN(c2ccccc2OC)CC1)C1CCc2ncsc2C1 (stereo not given)
Response line: criterion not met

Prompt line: I'd appreciate it if you could say whether O=C(NCC1CCOCC1)c1cnc(Nc2ccc(Cl)cc2Cl)nc1C(F)(F)F has half-life at least equal to 40 min.
Response line: criterion not met

Prompt line: Tell me whether half-life is at least 40 min here: CCN1C(=O)c2ccccc2C1Nc1ccc(OCCN2CCCCC2)cc1 (stereo not given)
Response line: criterion met

Prompt line: # check: half-life of O=c1[nH]c2ccc(Cl)cc2c(N[C@@H]2CN3CCC2CC3)c1-c1nc2ccccc2[nH]1 is greater than or equal to 40 min
Response line: criterion not met

Prompt line: Is it the case that Fc1ccc([C@@H]2CCNC[C@H]2COc2ccc3c(c2)OCO3)cc1 has half-life reaching or exceeding 40 min?
Response line: criterion met

---

Let's look at some compounds and their measured half-life.
Tested on: human liver microsomes, metabolic stability half-life
Test: NCATS Human Liver Microsomal (HLM) Stability Profiling
Conditions: higher = more stable; screened at 1 µM (by protocol)

Consider the worked cases shown below.
1. C[C@]12CCC3c4ccc(O)cc4C[C@@H](CCCCCCCCCS(=O)CCCC(F)(F)C(F)(F)F)[C@H]3[C@@H]1CC[C@@H]2O (some centres undefined)    4.1 min
2. CCOC(=O)c1c(C)nn(-c2cccc([N+](=O)[O-])c2)c1C    2.08 min
3. CCCOc1ccc(-c2nc(OC)c3ccccc3n2)cc1    14.7 min
4. COc1cc2c(Oc3ccc(-c4cnc(Nc5ccc(F)cc5)n(C)c4=O)cc3F)ccnc2cc1OCCCN1CCOCC1    30.6 min
5. O=C(CCc1ccccc1)N1CCC(O)(Cn2cnc3cc(Cl)ccc3c2=O)CC1    3.16 min

Prompt line: So what's the measured half-life for this one? Cc1ccc(S(=O)(=O)Nc2ccccc2N2CCCCC2)cc1
Response line: 3.04 min

Prompt line: For the compound shown here, Cc1cccc(C)c1NC(=O)Nc1cccs1 , give the reported half-life.
Response line: 80.6 min

Prompt line: Returns the measured half-life for the input compound. Input: COc1cc(Nc2nc3ccccc3nc2NS(=O)(=O)c2cccc(NC(=O)c3ccc(C)c(OC)c3)c2)cc(OC)c1
Response line: 14 min

Prompt line: What measured half-life goes with CCCc1nc(C)c2c(=O)[nH]c(-c3cc(S(=O)(=O)N4CCN(CC)CC4)ccc3OCC)nn12 ?
Response line: > 120 min
